Assayed Target: Potassium voltage-gated channel subfamily KQT member 2 (Rattus norvegicus) (UniProt O88943)
Sequence (O88943 whole entry, looked up): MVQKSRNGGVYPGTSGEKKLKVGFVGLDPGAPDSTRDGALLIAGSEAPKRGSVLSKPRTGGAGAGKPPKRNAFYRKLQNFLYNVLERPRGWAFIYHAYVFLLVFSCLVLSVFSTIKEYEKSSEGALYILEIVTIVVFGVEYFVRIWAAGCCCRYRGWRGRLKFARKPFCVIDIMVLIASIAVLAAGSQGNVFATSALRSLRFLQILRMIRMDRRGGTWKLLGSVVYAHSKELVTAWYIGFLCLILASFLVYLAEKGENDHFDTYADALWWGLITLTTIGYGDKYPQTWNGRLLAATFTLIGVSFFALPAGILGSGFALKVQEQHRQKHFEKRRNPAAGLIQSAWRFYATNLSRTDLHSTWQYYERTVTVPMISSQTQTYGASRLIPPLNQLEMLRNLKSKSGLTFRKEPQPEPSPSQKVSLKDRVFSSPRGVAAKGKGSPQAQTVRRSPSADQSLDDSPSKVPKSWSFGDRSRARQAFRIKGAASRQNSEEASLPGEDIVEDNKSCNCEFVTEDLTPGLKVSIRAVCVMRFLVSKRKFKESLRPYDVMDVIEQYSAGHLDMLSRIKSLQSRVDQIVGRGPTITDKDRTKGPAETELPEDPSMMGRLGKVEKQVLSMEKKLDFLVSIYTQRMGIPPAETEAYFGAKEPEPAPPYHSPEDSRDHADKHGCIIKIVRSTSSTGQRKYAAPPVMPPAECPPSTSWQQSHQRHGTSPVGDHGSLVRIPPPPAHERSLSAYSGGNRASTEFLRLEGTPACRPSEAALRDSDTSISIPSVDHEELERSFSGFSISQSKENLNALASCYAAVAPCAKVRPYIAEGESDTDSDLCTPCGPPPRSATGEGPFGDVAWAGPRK
Method Description: rat KCNQ2 channel potentiation, selectivity assay for KCNQ1 potentiator project, KCNQ2-CHO-K1 cells (AID 493009);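 note: assay conditions were tuned for KCNQ1 rather than KCNQ2 modulators; signal is max minus min fluorescence divided by baseline after thallium stimulus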
Experimental Parameters: FluxOR thallium flux fluorescence, at 10 µM, scaled: buffer 0, activator control 100
Calls of active or inactive are those of the source.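 Rule for the calls: active = mean duplicate potentiation above the buffer control mean plus 5 SD of buffer wells; inactive = the rest.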
Outcomes: active, inactive

> print(dat)
                                    compound  label.class
 1      Oc1ccc(N=Nc2ccc3c(c2)OCCO3)c2cccnc12       active
 2  COc1cccc(CNC(=O)C2CCN(S(=O)(=O)c3ccc(-n4cnnn4)cc3)CC2)c1     inactive
 3  c1ccc2c(c1)OCC(CNc1ncnc3nc[nH]c13)O2 (stereo unspecified)       active
 4  CCCSc1nnc(-c2cnn(-c3ccccc3)c2-n2cccc2)n1C     inactive
 5  CCOC(=O)Cc1csc(NC(=S)NC(=O)c2ccc(Cl)cc2)n1     inactive
 6  Cc1ccc(C(=O)N/N=C(/CC(=O)c2cccs2)C(F)(F)F)cc1       active
 7  O=C(Oc1c(-c2ccco2)oc2ccccc2c1=O)c1cccnc1       active
 8  COc1ccc(-n2cc(-c3ccccc3)c3c(=S)nc[nH]c32)cc1       active
 9  CC(C)[N+]1(C)[C@@H]2CC[C@H]1CC(OC(=O)C(CO)c1ccccc1)C2 (stereo partly specified)     inactive
10  O=C(N/N=C/c1c[nH]c2ccccc12)C1COc2ccccc2O1 (stereo unspecified)     inactive
11  COc1ccc(-c2nnc(Nc3nc4c(OC)cccc4s3)o2)cc1       active

====

Tested on: TRPC4 (transient receptor potential cation channel C4), mouse
Method Description: TRPC4 inhibition by TRPC6 hit compounds, confirmation, selectivity assay for TRPC6 modulator project, cell-based, second screen, HEK293 TRPC4/mu-opioid, membrane potential dye (AID 488928);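 note: TRPC4 counter screen for TRPC6 hits run under conditions tuned for TRPC6 not TRPC4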
Experimental Parameters: membrane potential dye fluorescence, at 10 µM, stimulated with maximal-effect DAMGO; hits give high values
The other results are listed elsewhere or left out. Active and inactive are the calls of the source.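 The calls were made as follows: active = drop in membrane potential signal beyond 5 SD of the control wells in both duplicate plates; inactive = the rest.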
Measurement Type: inhibition

> print(dat)
                                    molecule                            assayed.target  measurement.type  experimental.result
 1   O=C1c2ccccc2C(=O)c2c1cccc2N1CCN(CCO)CC1  TRPC4 (transient receptor potential cation channel C4), mouse        inhibition         60% (active)
 2  O=C(NC1C2CC3CC(C2)CC1C3)c1ccc(N2CCNCC2)c([N+](=O)[O-])c1 (stereo unspecified)  TRPC4 (transient receptor potential cation channel C4), mouse        inhibition       70.5% (active)
 3  CN(CC(=O)Nc1ccccc1[N+](=O)[O-])Cc1ccc(Br)cc1  TRPC4 (transient receptor potential cation channel C4), mouse        inhibition         29% (active)
 4  O=C(CN1CCCCCC1)NCCN1C(=O)S/C(=C\c2ccccc2Cl)C1=O  TRPC4 (transient receptor potential cation channel C4), mouse        inhibition         36% (active)
 5  CCc1ccc(OCC(=O)N(Cc2ccccc2)C2CCS(=O)(=O)C2)cc1 (stereo unspecified)  TRPC4 (transient receptor potential cation channel C4), mouse        inhibition             inactive
 6  O=C1CN(C(=O)c2ccccc2F)C(c2ccc(F)cc2)c2cc(F)ccc2N1 (stereo unspecified)  TRPC4 (transient receptor potential cation channel C4), mouse        inhibition             inactive
 7     N=c1n(CCc2ccccc2)c2ccccc2n1Cc1ccccc1F  TRPC4 (transient receptor potential cation channel C4), mouse        inhibition       90.5% (active)
 8  CC(=O)c1cc(NC(=O)c2ccccc2)c(=O)oc1/C=C/N(C)C  TRPC4 (transient receptor potential cation channel C4), mouse        inhibition       35.5% (active)
 9       CCCCc1nc(NCCN)c(C#N)c2c1CSC(C)(C)C2  TRPC4 (transient receptor potential cation channel C4), mouse        inhibition       56.5% (active)
10            N=c1c2c3c(sc2nc2n1CCCCC2)CCCC3  TRPC4 (transient receptor potential cation channel C4), mouse        inhibition       55.5% (active)
11  CN1CCN(c2ccc([N+](=O)[O-])c(Sc3nc4ccccc4[nH]3)c2)CC1  TRPC4 (transient receptor potential cation channel C4), mouse        inhibition       58.5% (active)

====

Assayed Target: Potassium voltage-gated channel subfamily KQT member 2 (Rattus norvegicus)
Method Description: rat KCNQ2 channel potentiation, selectivity assay for KCNQ1 potentiator project, KCNQ2-CHO-K1 cells (AID 493009);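 note: assay conditions were tuned for KCNQ1 rather than KCNQ2 modulators; signal is max minus min fluorescence divided by baseline after thallium stimulus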
Experimental Parameters: FluxOR thallium flux fluorescence, at 10 µM, scaled: buffer 0, activator control 100
The source made the active and inactive calls.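 How the source made its calls: active means mean duplicate potentiation above the buffer control mean plus 5 SD of buffer wells; inactive means the rest.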
Outcomes: 1 (active), 0 (inactive)

> print(dat)
                                    compound  label.class
 1  C=CCOc1c(Br)cc(/C=N/Nc2ccc(C(=O)O)cc2)cc1OCC            0
 2         Cc1ccc(C)c(NC(=S)c2nc3ccccc3s2)c1            1
 3         O=C(NC(=S)N1CCCc2ccccc21)c1ccccc1            1
 4        COc1ccccc1/C=C1\N=C(C(C)(C)C)OC1=O            0
 5  CC(Sc1cccc[n+]1[O-])c1ccccc1 (stereo unspecified)            0
 6               Cc1[nH]c(=S)sc1Cc1ccc(F)cc1            1
 7  O=C1/C(=C/c2cccc(F)c2)SC(=S)N1NS(=O)(=O)c1ccccc1            0
 8   Cc1ccc(NC(=O)CN(C)C(=O)CCOc2ccccc2C)cc1            0
 9  Cc1ccc(C(=O)NC(=S)N2CCN(c3ccccc3F)CC2)cc1            0
10  CC(=O)Nc1ccc(/C=N/N2C(=O)NC(C)(c3ccc(OC(F)F)cc3)C2=O)cc1 (stereo unspecified)            1
11  CC(C(=O)O)n1c2ccccc2c2cn[nH]c(=O)c21 (stereo unspecified)            0
12  O=C(NCc1ccccc1)C(=O)Nc1nc(C23CC4CC(CC(C4)C2)C3)cs1            0
13      O=c1c2ccccc2oc2cc(NCCCN3CCOCC3)ccc12            0
14               CCCNC(=O)C(=O)N/N=C/c1cccs1            0
15  COC(=O)C1=NN(C(=O)c2cccc(Br)c2)C(O)(c2ccc(Cl)cc2)C1 (stereo unspecified)            1
16  COc1ccc(N/C=C/C(=O)c2cc(OC)c(OC)c(OC)c2)cc1            1
17  Cc1cccc2sc(N(CCCN(C)C)C(=O)c3ccc4ncsc4c3)nc12            0
18  COc1ccc(C)cc1NC(=O)C1C2C=CC(C2)C1C(=O)O (stereo unspecified)            0
19     CC(C)CCn1c(=O)c2ccccc2n2c(=S)[nH]nc12            0
20  O=C(Nc1ccc(Cl)cc1C(F)(F)F)C(Sc1cccc[n+]1[O-])c1ccccc1 (stereo unspecified)            0
21  O=C(Cn1c(=O)oc2ccccc21)N1CCN(c2ccc(N3CCOCC3)nn2)CC1            0
22  CCOC(=O)c1nnn(CC(=O)Nc2cc(Cl)ccc2C)c1C(=O)OCC            0
23  Cc1cc(Cl)ccc1OCC(=O)N/N=C1\CC2C=CCC12 (stereo unspecified)            0
24    CC1CCN(c2ccccc2NC(=S)NC(=O)c2cccs2)CC1            0
25     O=C(CNC(=O)c1sc2ccccc2c1Cl)OCc1ccccc1            0
26         CCOC(=O)NC(=S)Nc1ccc(C(C)(C)C)cc1            0
27        O=C(Nc1ccc(N2CCCCC2)cc1)c1cccnc1Cl            0
28  CC(=O)c1c(C)[nH]c(C(=O)OCc2nc3ccsc3c(=O)[nH]2)c1C            0
29  Cc1cc(N2CCN(C)CC2)nc2ccc(NC(=S)NCCCN3CCc4ccccc4C3)cc12            0
30  O=[N+]([O-])c1cc(C(F)(F)F)ccc1Oc1cccnc1[N+](=O)[O-]            0
31         CC(C)C(=O)Nc1c(O)c2ccccc2[nH]c1=O            0
32                       NNc1nc2ccc(Cl)cc2s1            0
33    Cn1cc(-c2nnnn2-c2ccccc2)c(=O)c2ccccc21            0
34  COc1ccc(C2c3ccc4ccccc4c3Oc3ncn(CCN4CCOCC4)c(=N)c32)cc1OC (stereo unspecified)            0
35  CCOC(=O)c1cccc(NC(=O)CCc2nnc3ccc(N4CCCCC4)nn23)c1            0
36  CC1(N2CCCCC2)CC2(O)C(=[N+]1[O-])CCC/C2=N\O (stereo unspecified)            0
37       CCCSC(=S)c1c(C)[nH]n(-c2ccccc2)c1=O            1
38  CC1CCc2c(sc3[nH]c(=S)n(C)c(=O)c23)C1 (stereo unspecified)            1
39    CCN(CC)C(=S)SCC(=O)Nc1nc(=O)c2ccccc2s1            0
40  CCOC(=O)c1ccc(-n2c(CN3CCOCC3)nc3ccc([N+](=O)[O-])cc3c2=O)cc1            0
41  COc1ccc(C2C(C(=O)c3ccccc3)=C(C)Nc3nc4ccccc4n32)cc1OC (stereo unspecified)            0
42  O=C(NNC(=S)NC(=O)c1ccc(Br)cc1)c1cccc([N+](=O)[O-])c1            0
43      Cc1ccc(C(=O)CC(=O)c2cccc(F)c2)c(O)c1            1
44    Cc1ccccc1OCC(=O)N=Nc1c(O)n(C)c2ccccc12            1
45  CCOC(=O)CNC(=O)N1CCc2ccc(NC(=O)c3ccccc3Cl)cc2C1            0
46  Nc1ccc(C2(c3ccc(N)cc3)OC(=O)c3ccccc32)cc1            0
